System: GES1
Assay: Anti-proliferative activity against human GES1 cells
Assay type: toxicity, cell-based
parameter: Activity

Consider the reported Activity for these compounds:
compound=CC(=O)OC[C@@]12Oc3c(-c4ccc(O)c5c4O[C@]4(CO)C(=C(O)C[C@H](C)[C@@H]4OC(C)=O)C5=O)ccc(O)c3C(=O)C1=C(O)C[C@H](C)[C@@H]2OC(C)=O observed_value=Non-toxic
compound=CC(=O)O[C@H]1[C@@H](C)CC(O)=C2C(=O)c3c(ccc(-c4ccc(O)c5c4O[C@]4(CO)C(=C(O)C[C@H](C)[C@@H]4OC(C)=O)C5=O)c3O)O[C@]21CO observed_value=Non-toxic
compound=CC(=O)OC[C@@]12Oc3ccc(-c4ccc5c(c4O)C(=O)C4=C(O)C[C@H](C)[C@H](OC(C)=O)[C@]4(CO)O5)c(O)c3C(=O)C1=C(O)C[C@H](C)[C@@H]2OC(C)=O observed_value=Non-toxic
compound=CC(=O)O[C@H]1[C@@H](C)CC(O)=C2C(=O)c3c(O)ccc(-c4ccc5c(c4O)C(=O)C[C@](CO)([C@H]4OC(=O)C[C@@H]4C)O5)c3O[C@]21CO observed_value=Non-toxic
compound=CC(=O)O[C@H]1[C@@H](C)CC(O)=C2C(=O)c3c(O)ccc(-c4ccc(O)c5c4O[C@]4(CO)C(=C(O)C[C@H](C)[C@@H]4OC(C)=O)C5=O)c3O[C@]21CO observed_value=Non-toxic
compound=CC(=O)O[C@H]1[C@@H](C)CC(O)=C2C(=O)c3c(ccc(-c4ccc5c(c4O)C(=O)C4=C(O)C[C@H](C)[C@H](OC(C)=O)[C@]4(CO)O5)c3O)O[C@]21CO observed_value=Non-toxic

For each entry beneath this line, provide reported Activity.
1. CC(=O)OC[C@@]12Oc3c(-c4ccc5c(c4O)C(=O)C4=C(O)C[C@H](C)[C@H](OC(C)=O)[C@]4(CO)O5)ccc(O)c3C(=O)C1=C(O)C[C@H](C)[C@@H]2OC(C)=O (stereo in doubt; 2)
2. CC(=O)OC[C@@]12Oc3ccc(-c4ccc5c(c4O)C(=O)C4=C(O)C[C@H](C)[C@H](OC(C)=O)[C@]4(COC(C)=O)O5)c(O)c3C(=O)C1=C(O)C[C@H](C)[C@@H]2OC(C)=O

[A]
1: Non-toxic; 2: Non-toxic
